Test system: RXF 393 renal
ASSAY_PROTOCOL: NCI-60 one-dose screen, 48 h
ASSAY_CONTEXT: 10 µM unless noted
The panel holds about 83,000 compounds, 20% with a hit somewhere; the sample as a whole holds those more often. Active and inactive are the calls of the source. The calls were made as follows: active = growth percent below 10; inactive = the rest.
Please state which outcome applies, choosing from Y (active), N (inactive)

COc1ccc(Cc2cnc(NC(=O)c3ccc4c(c3)OCCO4)s2)cc1	N
Cc1cccc(NC(=O)Nc2ccc(-c3ccc4c(c3)NC(=O)/C4=C\c3ccc[nH]3)cc2)c1	N
COc1cc(/C=C\C(=O)O)ccc1OCc1ccccc1	N
Clc1ccc(-c2ccc(CNCC3CCNCC3)o2)c(-c2ccccc2)c1	Y
O=C1NN(C(=O)c2ccccc2)C(c2ccc(Cl)c(Cl)c2)=C/C1=C\c1ccc([N+](=O)[O-])cc1	N

[Q] So what was the verdict on CCCCNC(=O)Oc1ccc(/C(=C(\C)c2ccccc2)c2ccc(OCCN3CCCCC3)cc2)cc1 in this test?
[A] N

[Q] Hey, what did the test say about CCCCCN1C=C/C(=C\C(=O)n2ccc3ccccc32)c2ccccc21 ?
[A] N

[Q] # outcome recorded in this test, key = CCN(CC)CCCC(C)Nc1cc(O)cc2cccnc12 (stereo not drawn)
[A] N

[Q] Record request — test call for O=[N+]([O-])c1ccc(N=Nc2cc(S(=O)(=O)O)c3cccc(S(=O)(=O)O)c3c2O)cc1
[A] N

[Q] Per the assay record, what outcome was assigned to O=C(/C=C(/C=C/c1coc2ccccc12)OB(F)F)/C=C/c1coc2ccccc12 ?
[A] N

[Q] Please share the test call associated with COc1ccc(C(=O)c2cc(C)c(OC)c(C)c2)c(OC)c1NC(C)=O .
[A] N

[Q] Test call for this molecule, please: Cc1ccc(C(=O)/C(=C\c2ccc([N+](=O)[O-])cc2)S(=O)Cc2ccc(F)cc2)cc1 (stereo not drawn)
[A] Y

[Q] Status in this test for O=C(/C(=C\c1ccc([N+](=O)[O-])cc1)S(=O)Cc1ccc(F)cc1)c1ccc(F)cc1 (stereo not drawn) ?
[A] Y

* * *

Test system: SW-620 colon
ASSAY_PROTOCOL: NCI-60 one-dose screen, 48 h (100 = growth as untreated, 0 = no growth, -100 = all killed)
ASSAY_CONTEXT: 10 µM unless noted
About 83,000 compounds went through this panel and 20% of them were active in at least one assay; those are over-represented in the sample as a whole.
MEASURED_PROPERTY: growth (%)
Please give a number only; it is taken to be in %.

Nc1n[nH]c2cccc(C#Cc3cccc(C(=O)Nc4cc(CN5CCOCC5)cc(C(F)(F)F)c4)c3)c12	30.9

[Q] # query: growth of entry NS(=O)(=O)c1ccc(CCN2C(=O)c3cc(Cl)c(Cl)cc3C2=O)cc1
[A] 110

[Q] May I ask what growth has been recorded for COc1cc2nc(-c3ccc(C(F)(F)F)cc3)cc(OCCCN3CCCC3)c2cc1OC ?
[A] 28.6

[Q] Which growth is reported for this compound? COc1ccc(-c2nc(S(=O)(=O)c3ccccc3)c(S(=O)CC(=O)N3CCC(C)CC3)o2)cc1 (stereo not given)
[A] 1.06

[Q] Look at this compound and give its reported growth. Nc1nc(Nc2ccccc2SSc2ccccc2Nc2nc(N)nc(-c3ccc(C(F)(F)F)cc3)n2)nc(-c2ccc(C(F)(F)F)cc2)n1
[A] 80.4

[Q] Dear colleague, I am looking for the recorded growth of the following compound: CCNc1nc2ccc(Nc3ccnc4cc(Cl)ccc34)cc2[nH]1
[A] 57.8
